targetDesc: WT TALK-2 channels (human K2P17.1) (Homo sapiens)
Sequence (Q96T54 1-332): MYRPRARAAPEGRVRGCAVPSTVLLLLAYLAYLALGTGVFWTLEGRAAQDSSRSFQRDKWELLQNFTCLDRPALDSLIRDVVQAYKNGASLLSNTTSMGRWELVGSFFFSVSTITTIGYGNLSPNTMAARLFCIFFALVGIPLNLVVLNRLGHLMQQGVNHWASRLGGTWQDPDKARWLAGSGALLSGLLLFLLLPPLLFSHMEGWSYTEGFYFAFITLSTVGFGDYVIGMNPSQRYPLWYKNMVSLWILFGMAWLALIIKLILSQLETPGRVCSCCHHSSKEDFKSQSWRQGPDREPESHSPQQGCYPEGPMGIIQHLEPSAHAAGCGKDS
assayMethodText: Inside-out patch-clamp, ligand activation of channel currents at +40 mV (oocytes)

[
  {
    "compound": "NCCOB(c1ccccc1)c1ccccc1 [2-APB, 2-aminoethoxydiphenyl borate]",
    "EC50 (µM)": 421
  }
]
